Record form. Attribute: Pigweed plant response rating. Fill in for each entry.
- System: pigweed (Amaranthus retroflexus)
- experiment: Test A pre-/postemergence plant response
- Type: in vivo
- measurement.setup: Postemergence, 500 g ai/ha; visual injury, 0 to 100 scale (0 no effect, 100 complete control), approx. ten days
# print the numeric value only

Identify the reported Pigweed plant response rating for the following entry. `COc1ccc(-n2c(-c3ccccc3)ncc(C(=O)C3=C(O)CCCC3=O)c2=O)cc1OC`
100

In one line, give reported Pigweed plant response rating of the entry `Cc1cc(-n2c(-c3cccc(F)c3)ncc(C(=O)C3=C(O)CCCC3=O)c2=O)ccc1F` .
90

Return Pigweed plant response rating for the following compound: `Cc1ccc(-n2c(-c3cccc(F)c3)ncc(C(=O)C3=C(O)CCCC3=O)c2=O)cc1`
100

Specify Pigweed plant response rating for `CC1(C)CC(=O)C(C(=O)c2cnc(-c3ccccc3)n(-c3ccccc3)c2=O)=C(O)C1` and stop.
100

Give the reported Pigweed plant response rating for this compound. `O=C1CCCC(O)=C1C(=O)c1cnc(-c2cccc(F)c2)n(CCC(F)(F)F)c1=O`
90

Give recorded Pigweed plant response rating. `O=C1CCCC(O)=C1C(=O)c1cnc(-c2cccs2)n(C2CCCCC2)c1=O`
100

Please list Pigweed plant response rating recorded for the compound `O=C1CCCC(O)=C1C(=O)c1cnc(-c2cccc(C(F)(F)F)c2)n(C2CCCCC2)c1=O`
100

Quote Pigweed plant response rating reported for `Cc1cccc(-c2ncc(C(=O)C3=C(O)CCCC3=O)c(=O)n2-c2ccccc2C)c1` please.
100

Provide one value: measured Pigweed plant response rating of O=C(C1=C(O)C2CCC(C2)C1=O)c1cnc(-c2cccc(Br)c2)n(C2CCCCC2)c1=O (centres unmarked)
90

Look up Pigweed plant response rating of O=C1CCCC(O)=C1C(=O)c1cnc(-c2ccccc2)n(C2CC[S+]([O-])CC2)c1=O (mixture of isomers) and report it.
100

Dear colleague, please send me the reported Pigweed plant response rating for `O=C1CCCC(O)=C1C(=O)c1cnc(-c2cccc(F)c2)n(C2CCCCC2)c1=O` when you can.
100

Give a short answer stating reported Pigweed plant response rating for `CCc1ccccc1-n1c(-c2ccccc2)ncc(C(=O)C2=C(O)CCCC2=O)c1=O` .
100

Fill in reported Pigweed plant response rating for this entry: `CCc1ccc(-n2c(-c3cccc(Br)c3)ncc(C(=O)C3=C(O)CCCC3=O)c2=O)cc1`
100

Give a short answer stating reported Pigweed plant response rating for `COCCOCCn1c(-c2cc(F)cc(F)c2)ncc(C(=O)C2=C(O)CCCC2=O)c1=O` .
100
